Data origin, for the record: paper PMC10786891

Target: T1, EsCas13d, nuclease-dead (Eubacterium siraeum, UniProt B0MS50, R295A;H300A;R849A;H854A)
T1 sequence: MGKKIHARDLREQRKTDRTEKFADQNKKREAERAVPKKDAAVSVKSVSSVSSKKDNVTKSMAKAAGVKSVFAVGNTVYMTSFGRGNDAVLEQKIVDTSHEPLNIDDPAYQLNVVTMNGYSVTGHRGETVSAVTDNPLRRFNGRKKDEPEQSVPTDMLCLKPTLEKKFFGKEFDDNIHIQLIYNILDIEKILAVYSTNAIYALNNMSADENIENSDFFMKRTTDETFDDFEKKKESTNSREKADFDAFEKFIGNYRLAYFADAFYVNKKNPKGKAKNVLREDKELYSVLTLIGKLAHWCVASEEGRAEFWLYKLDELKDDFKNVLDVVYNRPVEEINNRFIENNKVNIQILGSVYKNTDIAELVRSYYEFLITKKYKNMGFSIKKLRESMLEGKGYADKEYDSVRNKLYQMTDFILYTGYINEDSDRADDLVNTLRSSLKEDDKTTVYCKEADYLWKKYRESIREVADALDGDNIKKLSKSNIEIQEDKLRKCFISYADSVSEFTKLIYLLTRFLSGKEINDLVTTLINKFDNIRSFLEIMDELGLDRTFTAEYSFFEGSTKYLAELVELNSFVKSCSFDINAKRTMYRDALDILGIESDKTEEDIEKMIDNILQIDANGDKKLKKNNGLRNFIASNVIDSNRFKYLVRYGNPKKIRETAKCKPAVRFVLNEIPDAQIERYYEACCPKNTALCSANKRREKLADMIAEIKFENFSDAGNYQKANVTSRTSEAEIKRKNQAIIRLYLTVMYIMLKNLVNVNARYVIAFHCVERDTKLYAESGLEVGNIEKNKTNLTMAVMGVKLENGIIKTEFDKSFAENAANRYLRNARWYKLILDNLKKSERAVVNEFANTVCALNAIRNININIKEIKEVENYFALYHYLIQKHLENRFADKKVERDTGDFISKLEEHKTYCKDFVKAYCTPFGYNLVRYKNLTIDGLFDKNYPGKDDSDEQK
Assay: crRNA (strand 1, pre-loaded); Mg2+; 40 mM Tris-HCl pH 7.5, 150 mM NaCl, 6 mM MgCl2, 1 mM DTT, 0.1% Tween-20, 0.2 mg/ml BSA; 25 C; 10 min per concentration, then washed
Conditions: tags: His6-TwinStrep-SUMO cleaved; N-terminal SNAP kept (SNAP-Surface 488); label: 3' end held by stalled T7 RNA polymerase
OUTCOME MEASURE: pKd
# pKd is unitless: minus log10 of the molar concentration; print number only

- BINDER: "target 1 insA 3' of 21,insU 3' of 2 (mixed) RNA 1: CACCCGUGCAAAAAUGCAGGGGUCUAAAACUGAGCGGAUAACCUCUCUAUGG RNA 2: GGGAAUGGAUCCACAUCUACGAAUUCGUACCAAUAGAGAGGUUAUCCGCUCUACCGAGAUCGGAAGAGCACACGU"
  pKd: 7.75

Please turn your attention to the following entry.
GET /value?item= target 2 MT 5'PFS GCU 3'PFS AAG (mixed) RNA 1: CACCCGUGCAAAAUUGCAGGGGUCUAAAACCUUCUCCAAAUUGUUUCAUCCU RNA 2: GGGAAUGGAUCCACAUCUACGAAUUCGCUAGGAUGAAACAAUUUGGAGAAGAAGAGAUCGGAAGAGCACACGU &field=pKd returns 7.95
